- experimental target: CD45 (Homo sapiens)
- Construct: incubating the cytosolic portion of CD45 with the compounds and p-nitrophenyl phosphate (pNPP); purchased BIOMOL (Plymouth Meeting, Pa.)
- assay notes: Phosphatase assay using lck 10-mer as substrate
- Format: biochemical
- test conditions: pH 7.2; read-out: Ick IC50
quantity kind: IC50 (µM)
Note: unit µM is implicit; provide only the numeric part.

Input: Item: O=C1C(=O)c2ccccc2-c2ccccc21 Test system: CD45 (Homo sapiens) Read-out: IC50 Value: ?
Output: 3.1

###

- experimental target: CD45 (Homo sapiens)
- Construct: incubating the cytosolic portion of CD45 with the compounds and p-nitrophenyl phosphate (pNPP); purchased BIOMOL (Plymouth Meeting, Pa.)
- Sequence (P08575 599-1306 limits assumed): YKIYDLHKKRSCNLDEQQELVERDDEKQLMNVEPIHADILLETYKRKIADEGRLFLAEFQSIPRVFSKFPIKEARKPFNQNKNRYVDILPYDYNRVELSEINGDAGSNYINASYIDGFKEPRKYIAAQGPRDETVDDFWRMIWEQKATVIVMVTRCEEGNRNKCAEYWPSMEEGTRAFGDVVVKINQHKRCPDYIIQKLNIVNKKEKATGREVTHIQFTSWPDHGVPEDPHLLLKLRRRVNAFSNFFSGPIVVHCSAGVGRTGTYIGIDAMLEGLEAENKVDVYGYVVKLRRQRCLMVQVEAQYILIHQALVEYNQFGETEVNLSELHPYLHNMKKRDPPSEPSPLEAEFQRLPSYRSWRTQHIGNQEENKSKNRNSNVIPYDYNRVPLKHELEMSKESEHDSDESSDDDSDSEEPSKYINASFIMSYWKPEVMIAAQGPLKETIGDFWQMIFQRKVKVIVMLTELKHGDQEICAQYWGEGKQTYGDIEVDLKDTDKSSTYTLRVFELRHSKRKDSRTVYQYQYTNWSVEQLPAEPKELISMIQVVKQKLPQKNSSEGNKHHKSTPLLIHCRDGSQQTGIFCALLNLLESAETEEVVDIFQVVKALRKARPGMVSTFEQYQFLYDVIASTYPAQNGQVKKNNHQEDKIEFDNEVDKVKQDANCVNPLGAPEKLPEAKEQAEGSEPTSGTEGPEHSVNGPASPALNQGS
- assay notes: Phosphatase assay using lck 10-mer as substrate
- Assay type: biochemical
Where a SMILES comes first, the peptide text is derived from it. The star is where a group is joined. Phenanthrenequinone2carbonyl = O=C1C(=O)c2cc(C(=O)*)ccc2-c2ccccc21; 3Phenanthroyl(9,10-dioxo) = O=C1C(=O)c2ccc(C(=O)*)cc2-c2ccccc21
Examples of compounds with documented IC50 follow.
Note: unit µM is implicit; provide only the numeric part.

INSERT INTO results (compound, quantity_kind, value_reported) VALUES
  ('NC(=O)CC[C@H](NC(=O)c1ccc2c(c1)-c1ccccc1C(=O)C2=O)C(=O)N[C@@H](CCC(=O)O)C(=O)NCC(=O)N[C@@H](CCC(N)=O)C(=O)N1CCC[C@H]1C(=O)O [Example 33] ({3Phenanthroyl(9,10-dioxo)}-QEGQP-OH)', 'IC50', 2.5);

Input: Could you tell me which IC50 is on file for N=C(N)NCCC[C@H](NC(=O)c1ccc2c(c1)C(=O)C(=O)c1ccccc1-2)C(=O)N[C@@H](CCCNC(=N)N)C(=O)N1CCC[C@H]1C(=O)N[C@@H](CCCNC(=N)N)C(=O)NCC(=O)O [Example 57] (Phenanthrenequinone2carbonyl-RRPRG-OH) ?
Output: 3.2

###

Examples of compounds with documented CC50 follow.
- System: T-cell lymphoblasts
- assay notes: Cytotoxicity assay (Calcein-AM uptake)
- test conditions: PHA-expanded T-cell lymphoblasts, overnight incubation, Calcein-AM

Here are 2 compounds together with their reported answers.
INSERT INTO measurements (smiles_str, quantity_kind, value_reported) VALUES
  ('CCCC(=O)Nc1ccc2c(c1)-c1ccccc1C(=O)C2=O', 'CC50', '9.1 µM'),
  ('COC(=O)CCCCCCCCC(=O)Nc1ccc2c(c1)-c1ccccc1C(=O)C2=O', 'CC50', '> 30 µM');

Input: Could you tell me which CC50 is on file for O=C1C(=O)c2ccc(NC(=O)C(Cl)(Cl)Cl)cc2-c2ccccc21 ?
Output: > 30 µM

###

- experimental target: CD45 (Homo sapiens)
- Construct: incubating the cytosolic portion of CD45 with the compounds and p-nitrophenyl phosphate (pNPP); purchased BIOMOL (Plymouth Meeting, Pa.)
- assay notes: Phosphatase assay using pNPP as substrate
- Assay type: biochemical
- test conditions: pH 7; read-out: pNPP IC50
Where a SMILES comes first, the peptide text is derived from it. The star is where a group is joined. Phenanthrenequinone2carbonyl = O=C1C(=O)c2cc(C(=O)*)ccc2-c2ccccc21; 3Phenanthroyl(9,10-dioxo) = O=C1C(=O)c2ccc(C(=O)*)cc2-c2ccccc21
Examples of molecules with documented IC50 follow.
Note: unit nM is implicit; provide only the numeric part.

INSERT INTO measurements (molecule, quantity_kind, unit_abbrev, value_reported) VALUES
  ('N=C(N)NCCC[C@H](NC(=O)[C@@H]1CCCN1C(=O)[C@H](CCC(=O)O)NC(=O)[C@H](CCC(=O)O)NC(=O)c1ccc2c(c1)C(=O)C(=O)c1ccccc1-2)C(=O)NCC(=O)O [Example 53] (Phenanthrenequinone2carbonyl-EEPRG-OH)', 'IC50', 'nM', 1000);

Switching to the query record.
Input: Could you tell me which IC50 is on file for NC(=O)CC[C@H](NC(=O)c1ccc2c(c1)-c1ccccc1C(=O)C2=O)C(=O)N[C@@H](CCC(=O)O)C(=O)NCC(=O)N[C@@H](CCC(N)=O)C(=O)N1CCC[C@H]1C(=O)O [Example 33] ({3Phenanthroyl(9,10-dioxo)}-QEGQP-OH) ?
Output: 1100

###

Examples of compounds with documented pIC50 follow.
- experimental target: CD45 (Homo sapiens, UniProt P08575)
- Construct: incubating the cytosolic portion of CD45 with the compounds and p-nitrophenyl phosphate (pNPP); purchased BIOMOL (Plymouth Meeting, Pa.)
- assay notes: Phosphatase assay using lck 10-mer as substrate
- Assay type: biochemical
Where a SMILES comes first, the peptide text is derived from it. The star is where a group is joined. Phenanthrenequinone2carbonyl = O=C1C(=O)c2cc(C(=O)*)ccc2-c2ccccc21
On this scale, pIC50 is minus log10 of a concentration expressed in M (mol/L).

Input: Could you tell me which pIC50 is on file for N=C(N)NCCC[C@H](NC(=O)[C@@H]1CCCN1C(=O)CNC(=O)CNC(=O)c1ccc2c(c1)C(=O)C(=O)c1ccccc1-2)C(=O)NCC(=O)O [Example 49] (Phenanthrenequinone2carbonyl-GGPRG-OH) ?
Output: 5.21

###

Examples of compounds with documented CC50 follow.
- assay notes: Cytotoxicity assay (Calcein-AM uptake)
- test conditions: human, PHA-expanded T-cell lymphoblasts from PBMC
Note: unit µM is implicit; provide only the numeric part.

Here are 2 compounds together with their reported answers.
INSERT INTO assay_data (smiles_str, value_reported) VALUES
  ('O=C1C(=O)c2cccc([N+](=O)[O-])c2-c2ccccc21', 10),
  ('O=C1C(=O)c2cc([N+](=O)[O-])ccc2-c2ccccc21', 10);

Switching to the query record.
Input: Could you tell me which CC50 is on file for CC(C)(C)OC(=O)CNC(=O)c1ccc2c(c1)C(=O)C(=O)c1ccccc1-2 ?
Output: 10

###

- experimental target: CD45 (Homo sapiens)
- Construct: incubating the cytosolic portion of CD45 with the compounds and p-nitrophenyl phosphate (pNPP); purchased BIOMOL (Plymouth Meeting, Pa.)
- Sequence (P08575 599-1306 limits assumed): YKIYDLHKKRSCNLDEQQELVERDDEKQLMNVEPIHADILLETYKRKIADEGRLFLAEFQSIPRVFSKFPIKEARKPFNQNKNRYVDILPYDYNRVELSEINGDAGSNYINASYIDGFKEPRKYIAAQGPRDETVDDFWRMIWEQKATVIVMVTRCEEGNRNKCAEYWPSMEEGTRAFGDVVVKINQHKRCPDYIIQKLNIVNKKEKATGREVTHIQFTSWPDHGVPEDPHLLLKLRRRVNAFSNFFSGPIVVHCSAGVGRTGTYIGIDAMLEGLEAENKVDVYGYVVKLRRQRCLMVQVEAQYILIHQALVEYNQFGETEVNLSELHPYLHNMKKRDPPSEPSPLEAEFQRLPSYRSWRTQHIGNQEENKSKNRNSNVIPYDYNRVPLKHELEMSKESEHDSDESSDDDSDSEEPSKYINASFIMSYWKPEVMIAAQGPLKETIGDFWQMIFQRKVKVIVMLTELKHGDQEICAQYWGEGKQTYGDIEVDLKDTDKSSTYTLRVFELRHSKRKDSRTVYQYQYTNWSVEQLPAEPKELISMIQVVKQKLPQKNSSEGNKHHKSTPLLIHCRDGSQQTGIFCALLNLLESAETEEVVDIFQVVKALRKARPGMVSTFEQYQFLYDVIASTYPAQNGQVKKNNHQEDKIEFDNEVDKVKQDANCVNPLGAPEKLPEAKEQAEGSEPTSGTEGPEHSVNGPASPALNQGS
- assay notes: Phosphatase assay using pNPP as substrate
- Assay type: biochemical
- test conditions: pH 7; read-out: pNPP IC50
Where a SMILES comes first, the peptide text is derived from it. The star is where a group is joined. Phenanthrenequinone2carbonyl = O=C1C(=O)c2cc(C(=O)*)ccc2-c2ccccc21
quantity kind: IC50 (nM)
Note: unit nM is implicit; provide only the numeric part.

INSERT INTO assay_data (molecule, quantity_kind, unit_abbrev, value_reported) VALUES
  ('N=C(N)NCCC[C@H](NC(=O)[C@@H]1CCCN1C(=O)CNC(=O)CNC(=O)c1ccc2c(c1)C(=O)C(=O)c1ccccc1-2)C(=O)NCC(=O)O [Example 49] (Phenanthrenequinone2carbonyl-GGPRG-OH)', 'IC50', 'nM', 900),
  ('N=C(N)NCCC[C@H](NC(=O)[C@H](CCC(=O)O)NC(=O)c1ccc2c(c1)C(=O)C(=O)c1ccccc1-2)C(=O)N1CCC[C@H]1C(=O)N[C@@H](CCC(=O)O)C(=O)NCC(=O)O [Example 47] (Phenanthrenequinone2carbonyl-ERPEG-OH)', 'IC50', 'nM', 700),
  ('O=C(O)CC[C@H](NC(=O)c1ccc2c(c1)C(=O)C(=O)c1ccccc1-2)C(=O)N[C@@H](CCC(=O)O)C(=O)N1CCC[C@H]1C(=O)N[C@@H](CCC(=O)O)C(=O)NCC(=O)O [Example 44] (Phenanthrenequinone2carbonyl-EEPEG-OH)', 'IC50', 'nM', 1100);

Switching to the query record.
Input: Could you tell me which IC50 is on file for N=C(N)NCCC[C@H](NC(=O)[C@@H]1CCCN1C(=O)[C@H](CCC(=O)O)NC(=O)CNC(=O)c1ccc2c(c1)C(=O)C(=O)c1ccccc1-2)C(=O)NCC(=O)O [Example 52] (Phenanthrenequinone2carbonyl-GEPRG-OH) ?
Output: 800
